# Tested on: primary cultures (neurons) from cerebral cortices of fetal Wistar rats
# protocol summary: Biological Test 2: antagonism of the neuroprotective effect by MTA treatment (MTT)
# Format: cell-based, rat
# settings: 0.75 mM MTA added 30 minutes before test compound, glutamate
Output Fulfilled for records whose Survival Rate (%) (Compound: 1 μl & MTA treatment) is lower than 20%, Not fulfilled for records at or above 20%.

compound: CCCCN1CCC(N(C)C(=O)COc2c(C)c(C)c(N)c(C)c2C)CC1
tgt: primary cultures (neurons) from cerebral cortices of fetal Wistar rats
class assignment: Fulfilled
--
compound: Cc1c(C)c(NCC(=O)N(C)C2CCN(c3ccc(F)cc3)CC2)c(C)c(C)c1N
tgt: primary cultures (neurons) from cerebral cortices of fetal Wistar rats
class assignment: Fulfilled
--
compound: Cc1c(C)c(OCC(=O)N(C)C2CCN(CCOCC(O)c3ccccc3)CC2)c(C)c(C)c1N (centres unmarked)
tgt: primary cultures (neurons) from cerebral cortices of fetal Wistar rats
class assignment: Not fulfilled
--
compound: Cc1c(C)c(OCC(=O)N(C)C2CCN(C[C@@H]3C[C@H]3c3ccccc3)CC2)c(C)c(C)c1N (relative stereo)
tgt: primary cultures (neurons) from cerebral cortices of fetal Wistar rats
class assignment: Fulfilled
--
compound: Cc1c(C)c(OCC(=O)N(C)C2CCN(CC(=O)c3ccccc3)CC2)c(C)c(C)c1N
tgt: primary cultures (neurons) from cerebral cortices of fetal Wistar rats
class assignment: Not fulfilled
--
compound: CCCCN1CCC(N(C)C(=O)C(C)Oc2c(C)c(C)c(N)c(C)c2C)CC1 (centres unmarked)
tgt: primary cultures (neurons) from cerebral cortices of fetal Wistar rats
class assignment: Not fulfilled
--
compound: Cc1c(C)c(OCC(=O)N(C)C2CCN(Cc3ccc(C#N)cc3)CC2)c(C)c(C)c1N
tgt: primary cultures (neurons) from cerebral cortices of fetal Wistar rats
class assignment: Not fulfilled
--
compound: Cc1c(C)c(OC(C)(C)C(=O)N(C)C2CCN(CCc3ccccc3)CC2)c(C)c(C)c1N
tgt: primary cultures (neurons) from cerebral cortices of fetal Wistar rats
class assignment: Not fulfilled

* * *

# Test system: primary cultures (neurons) from cerebral cortices of fetal Wistar rats
# protocol summary: Biological Test 2: antagonism of the neuroprotective effect by MTA treatment (MTT)
# Assay type: cell-based, rat
# settings: 0.75 mM MTA added 30 minutes before test compound, glutamate
property measured: Survival Rate (%) (Compound: 1 μl & MTA treatment)

sample smiles: Cc1c(C)c(OCC(=O)N(C)C2CCN(Cc3ccc(C(N)=O)cc3)CC2)c(C)c(C)c1N
observed measurement: 28
//
sample smiles: Cc1c(C)c(N)c(C)c(OCC(=O)N(C)C2CCN(C(=O)c3ccccc3)CC2)c1C
observed measurement: 46
//
sample smiles: Cc1c(C)c(OCC(=O)N(C)C2CCN(CC(=O)Nc3ccccc3)CC2)c(C)c(C)c1N
observed measurement: 32
//
sample smiles: Cc1c(C)c(NCC(=O)N(C)C2CCN(c3nc4ccccc4s3)CC2)c(C)c(C)c1N
observed measurement: 20
